Parameter: composite z-score. Scope: all listed entries.
SYSTEM_TESTED: E3 ubiquitin-protein ligase XIAP (Homo sapiens) (UniProt P98170)
Sequence (P98170 whole entry, looked up): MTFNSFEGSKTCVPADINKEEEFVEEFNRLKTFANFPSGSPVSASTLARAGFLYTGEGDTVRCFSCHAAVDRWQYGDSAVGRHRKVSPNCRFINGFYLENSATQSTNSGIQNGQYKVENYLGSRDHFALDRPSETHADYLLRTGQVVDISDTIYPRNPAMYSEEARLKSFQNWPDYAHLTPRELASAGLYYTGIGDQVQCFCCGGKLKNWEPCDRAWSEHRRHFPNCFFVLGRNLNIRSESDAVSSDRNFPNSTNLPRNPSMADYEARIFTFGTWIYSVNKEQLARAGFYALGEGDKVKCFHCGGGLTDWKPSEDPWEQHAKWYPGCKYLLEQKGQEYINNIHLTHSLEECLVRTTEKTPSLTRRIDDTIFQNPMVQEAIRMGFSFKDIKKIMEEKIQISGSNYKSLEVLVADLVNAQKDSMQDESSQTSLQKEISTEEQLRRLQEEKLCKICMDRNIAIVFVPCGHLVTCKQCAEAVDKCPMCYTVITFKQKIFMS
TEST_DETAILS: XIAP binders, primary screen, biophysical, small-molecule microarray, fluorescence 635 nm (AID 1181);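 note: score merges 667 nm emission and signal to noise over triplicate slides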
SETTINGS: small-molecule microarray binding, higher = more signal
Write the number on its own, no unit after it.

Please fill in: composite z-score reported for `C[N+](C)(C)CCCCCCNC(=O)[C@@H]1C[C@@H]2C(=O)N3CCC[C@H]3C(=O)N2[C@@H]1c1cccc(OCCO)c1` = -0.0655

Please fill in: composite z-score reported for `O=C(NN=C1C[C@@H](O)[C@@H](O)[C@@H]2[C@@H]3C(=O)N(c4cccc(Oc5ccccc5)c4)C(=O)[C@@H]3CC[C@@H]12)OCc1ccccc1` = -0.0506

Please fill in: composite z-score reported for `CCN1C(=O)[C@H]2[C@H]3[C@H](O)[C@H](O)CC(=NOCc4ccccc4)[C@H]3CC[C@H]2C1=O` = 0.0785

* * *

TEST_DETAILS: small-molecule binders of probe aNOTCH2, primary screen, biochemical, small-molecule microarray, 635/667 nm fluorescence (AID 1121);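 note: score merges feature fluorescence read at 667 nm with its signal to noise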
SETTINGS: higher = more signal
OBSERVED_PROPERTY: composite z-score
Write the number on its own, no unit after it.

Recorded results for 5 compounds are shown here.
O=C1[C@H]2[C@H]3[C@H](O)[C@H](O)CC(=NOC[C@@H](O)COCc4ccco4)[C@@H]3CC[C@H]2C(=O)N1c1ccc(F)cc1F : -0.14
CC(CCN1CCCCc2nc(C)c(C)cc21)=NOC(C)CN1CCCc2nc(C)c(C)cc21 (centres undefined) : 0.153
COC(=O)[C@@H]1N=C(c2ccc(OCCCO)cc2)O[C@@H]1c1ccccc1N=[N+]=[N-] : -0.0534
COCCOC(=O)N1C(=O)[C@@]2(c3cc(C#CCNC(N)=O)ccc31)[C@H](c1ccc(O)cc1)N1[C@H](c3ccccc3)[C@H](c3ccccc3)OC(=O)[C@H]1[C@@H]2C(=O)N1CCCCCCC1 : -0.108
CC(C)[C@H](NC(=O)OC(C)(C)C)[C@@H](O)CC(=O)OC(C)(C)C : -0.144

Please fill in: composite z-score reported for `CC(=O)OC[C@H]1O[C@H](CCON=C(C)CCC(=O)OC[C@H]2O[C@H](C#Cc3ccccc3)C=C[C@@H]2Oc2ccc(C)cc2)C=C[C@@H]1OC(C)=O` = -0.204

Please fill in: composite z-score reported for `COc1ccc(O[C@H]2C=C[C@@H](c3ccccc3)O[C@@H]2COC(=O)CCC(C)=NO[C@H](C)c2cn([C@@H]3COC[C@H]3O)nn2)cc1` = -0.211

Please fill in: composite z-score reported for `CCc1cc2c(nc1CC)CCN(CCC(C)=NOC[C@@H](O)[C@H]1O[C@@H]3OC(C)(C)O[C@@H]3[C@H]1O)C2` = -0.0891

Please fill in: composite z-score reported for `CO[C@H]1COC(=O)[C@H](C)COC(=O)CC=C[C@@H](C)[C@H](OC)COC(=O)CC=C[C@@H]1C` = -0.164

Please fill in: composite z-score reported for CC(=O)O[C@H]1C2=C(C(=O)[C@@H]3O[C@@H]31)[C@H]1C(C)O[C@@H]2[C@@]23C(=O)[C@@H]4O[C@@H]4[C@@H](O)C2=CO[C@H](C)[C@@H]13 (some centres undefined) = -0.0937

Please fill in: composite z-score reported for `O=C1[C@H]2[C@H]3[C@H](O)[C@H](O)CC(=NO[C@@H]4O[C@H](CO)[C@@H](O)[C@H](O)[C@H]4O)[C@H]3CC[C@H]2C(=O)N1Cc1ccc2c(c1)OCO2` = -0.106

Please fill in: composite z-score reported for `O=C(NN=C1C[C@@H](O)[C@@H](O)[C@@H]2[C@@H]3C(=O)N(c4ccc(F)cc4F)C(=O)[C@@H]3CC[C@@H]12)OCc1ccccc1` = -0.123

Please fill in: composite z-score reported for `COc1ccc(O[C@H]2C=C[C@@H](c3ccccc3)O[C@@H]2COC(=O)CCC(C)=NOC[C@@H](C)[C@H](OCc2ccccc2)C(C)C)cc1` = -0.157

Please fill in: composite z-score reported for `C[C@@H]1C=CCC(=O)OC[C@H](C)C(=O)OC[C@H]2O[C@H]1C=C[C@H]2O` = -0.0795

The measured values listed here are drawn from PubChem BioAssay.
